study-system: T1, human IgE (human, UniProt P01854 1-428)
T1 construct: written under the same molecule; also called IgE (Abcam ab65866); soluble IgE
T1 sequence (P01854 other isoform, or with tags, fused parts or gaps limits assumed, form in doubt): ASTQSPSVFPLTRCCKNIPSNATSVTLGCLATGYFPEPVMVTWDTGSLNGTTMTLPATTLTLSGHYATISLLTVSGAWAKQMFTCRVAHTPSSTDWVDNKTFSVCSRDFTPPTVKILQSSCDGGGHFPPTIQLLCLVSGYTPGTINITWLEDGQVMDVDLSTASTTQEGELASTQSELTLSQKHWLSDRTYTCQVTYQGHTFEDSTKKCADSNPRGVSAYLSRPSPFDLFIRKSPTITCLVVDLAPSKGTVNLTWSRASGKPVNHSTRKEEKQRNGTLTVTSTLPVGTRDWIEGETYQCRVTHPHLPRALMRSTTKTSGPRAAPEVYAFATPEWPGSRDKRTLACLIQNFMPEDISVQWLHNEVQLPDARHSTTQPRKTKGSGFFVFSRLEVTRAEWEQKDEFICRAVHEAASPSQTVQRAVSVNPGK
experiment: ELISA, clone lysate on IgE-coated plate
metric-name: Confirm OD450 Duplicate1

| binder | endpoint-value |
| --- | --- |
| 44C1 (VHH) VHH: EVQLLESGGGEVQPGGSLRLSCVASGLTFSSYNMGWLRQAPGKEREFVGLSGSSSTSTYYAESVKGRFTISRDNAKNTVYLQMTSLRAEDTAVYYCAARRLLSTYWSDRSWDMWGQGTLVTVEP | 0.556 |
| 3-1A1 (VHH, also called hzB10v40 VHH, CDR1 site 3 T to V) VHH: EVQLLESGGGEVQPGGSLRLSCVASGLVFSSYNMGWLRQAPGKEREFVGLSGSSSTSTYYAESVKGRFTISRDNAKNTVYLQMTSLRAEDTAVYYCAARRLLSTYWSDRSWDFWGQGTLVTVEP | 0.607 |
